The compounds listed here are annotated with their MIC.
System: Erwinia amylovora PMV6076
Experiment: MIC, growth inhibition in microtiter plates (TSB)
Assay type: cell-based
Conditions: Ea, 25°C, 48 h, OD 600 nm, lowest concentration with no growth, given as interval of tested concentrations, three replicates, experiment repeated twice

Solved entries (count: 5):
compound="CCCC(=O)NCCCC[C@H](NC(=O)[C@H](CCCCN)NC(=O)[C@H](CC(C)C)NC(=O)[C@@H](NC(=O)[C@H](CCCCN)NC(=O)[C@H](CCCCN)NC(=O)[C@H](Cc1ccccc1)NC(=O)[C@H](CC(C)C)NC(=O)[C@H](CCCCN)NC(=O)[C@H](CCCCN)NC(C)=O)[C@@H](C)CC)C(=O)N[C@@H](CC(C)C)C(N)=O [BP389, Ac-KKLFKKILKK(COC3H7)L-NH2]" testedtarget="Erwinia amylovora PMV6076" observedresult="3.1 to 6.2 µM"
compound="CCCCCCCCCCCC(=O)NCCCC[C@H](NC(=O)[C@@H](NC(=O)[C@H](CCCCN)NC(=O)[C@H](CCCCN)NC(=O)[C@H](Cc1ccccc1)NC(=O)[C@H](CC(C)C)NC(=O)[C@H](CCCCN)NC(=O)[C@H](CCCCN)NC(C)=O)[C@@H](C)CC)C(=O)N[C@@H](CCCCN)C(=O)N[C@@H](Cc1ccc(O)cc1)C(=O)N[C@@H](CC(C)C)C(N)=O [BP399, Ac-KKLFKKIK(COC11H23)KYL-NH2]" testedtarget="Erwinia amylovora PMV6076" observedresult=">25 µM"
compound="CCCC(=O)N[C@@H](CCCCN)C(=O)N[C@@H](CCCCN)C(=O)N[C@@H](CC(C)C)C(=O)N[C@@H](Cc1ccccc1)C(=O)N[C@@H](CCCCN)C(=O)N[C@@H](CCCCN)C(=O)N[C@H](C(=O)N[C@@H](CC(C)C)C(=O)N[C@@H](CCCCN)C(=O)N[C@@H](Cc1ccc(O)cc1)C(=O)N[C@@H](CC(C)C)C(N)=O)[C@@H](C)CC [BP379, C3H7CO-KKLFKKILKYL-NH2]" testedtarget="Erwinia amylovora PMV6076" observedresult="3.1 to 6.2 µM"
compound="CCCCCC(=O)NCCCC[C@H](NC(=O)[C@H](CCCCN)NC(=O)[C@H](CCCCN)NC(=O)[C@H](Cc1ccccc1)NC(=O)[C@H](CC(C)C)NC(=O)[C@H](CCCCN)NC(=O)[C@H](CCCCN)NC(C)=O)C(=O)N[C@@H](CC(C)C)C(=O)N[C@@H](CCCCN)C(=O)N[C@@H](Cc1ccc(O)cc1)C(=O)N[C@@H](CC(C)C)C(N)=O [BP374, Ac-KKLFKKK(COC5H11)LKYL-NH2]" testedtarget="Erwinia amylovora PMV6076" observedresult="3.1 to 6.2 µM"
compound="CCCCCC(=O)NCCCC[C@H](NC(=O)[C@H](CC(C)C)NC(=O)[C@@H](NC(=O)[C@H](CCCCN)NC(=O)[C@H](CCCCN)NC(=O)[C@H](Cc1ccccc1)NC(=O)[C@H](CC(C)C)NC(=O)[C@H](CCCCN)NC(=O)[C@H](CCCCN)NC(C)=O)[C@@H](C)CC)C(=O)N[C@@H](Cc1ccc(O)cc1)C(=O)N[C@@H](CC(C)C)C(N)=O [BP376, Ac-KKLFKKILK(COC5H11)YL-NH2]" testedtarget="Erwinia amylovora PMV6076" observedresult="6.2 to 12.5 µM"

# input for lookup
**Q:** Input CCCCCC(=O)NCCCC[C@H](NC(=O)[C@H](Cc1ccccc1)NC(=O)[C@H](CC(C)C)NC(=O)[C@H](CCCCN)NC(=O)[C@H](CCCCN)NC(C)=O)C(=O)N[C@@H](CCCCN)C(=O)N[C@H](C(=O)N[C@@H](CC(C)C)C(=O)N[C@@H](CCCCN)C(=O)N[C@@H](Cc1ccc(O)cc1)C(=O)N[C@@H](CC(C)C)C(N)=O)[C@@H](C)CC [BP372, Ac-KKLFK(COC5H11)KILKYL-NH2] , output reported MIC.
**A:** 6.2 to 12.5 µM
